# Test system: SNK-6 (IL-2 2.5 ng/mL)
# Assay details: percent inhibition of viability; higher = more inhibition
# Test context: 72 h; 100 nM
Record form. Attribute: percent inhibition of viability. Fill in for each entry.
Your answer should be a plain number; it is taken to be in %.

Provide SNK-6 (IL-2 2.5 ng/mL) percent inhibition of viability reading for CNC(=O)c1ccc(N2C(=S)N(c3ccc(C#N)c(C(F)(F)F)c3)C(=O)C2(C)C)cc1F [Enzalutamide] (max concentration tested 10000 nM) .
-9.97

Report percent inhibition of viability from SNK-6 (IL-2 2.5 ng/mL) testing of CC[C@]1(O)C[C@@H]2CN(CCc3c([nH]c4ccccc34)[C@@](C(=O)OC)(c3cc4c(cc3OC)N(C)[C@H]3[C@@](O)(C(=O)OC)[C@H](OC(C)=O)[C@]5(CC)C=CCN6CC[C@]43[C@@H]65)C2)C1 [Vinblastine] (max concentration tested 1000 nM)
91.1

Recall the reported percent inhibition of viability of COC(=O)c1ccc2c(c1)NC(=O)/C2=C(\Nc1ccc(N(C)C(=O)CN2CCN(C)CC2)cc1)c1ccccc1 [Nintedanib] (max concentration tested 10000 nM) on SNK-6 (IL-2 2.5 ng/mL) and write it down.
-2.75

Answer with percent inhibition of viability of COCC1(CO)C(=O)C2CCN1CC2 (stereo not given) [APR-246] (max concentration tested 10000 nM) measured for SNK-6 (IL-2 2.5 ng/mL).
11.8

Enter percent inhibition of viability (test system SNK-6 (IL-2 2.5 ng/mL)) for CN(C)c1cc2c(cc1Sc1nc3c(N)nccc3n1CCNCC(C)(C)C)OCO2 [CUDC-305] (max concentration tested 10000 nM)
-1.59

###

# Tested on: KHYG-1 (IL-2 2.5 ng/mL)
# Assay details: percent inhibition of viability; higher = more inhibition
# Test context: 72 h; 1000 nM
Classify: Satisfied when percent inhibition of viability is strictly less than 10%; Not satisfied when percent inhibition of viability is not.

percent inhibition of viability strictly < 10% for this compound? CC(C)C[C@@H](C(=O)N[C@H](C(=O)OC1CCCC1)c1ccccc1)[C@H](O)C(=O)NO [Tosedostat] (max concentration tested 10000 nM)
Not satisfied

Is percent inhibition of viability strictly under 10% for the entry Cc1cc(C(C)Nc2ccccc2)c2nc(N3CCOCC3)cc(=O)n2c1 (stereo unspecified) [TGX-221] (max concentration tested 10000 nM) ?
Satisfied

I'd appreciate it if you could check whether CCCOc1ccn2c(C(C)=O)cc(-c3ccccc3S(C)(=O)=O)c2c1 [GSK2801] (max concentration tested 10000 nM) has percent inhibition of viability smaller than 10%.
Satisfied

Given CC[C@]1(O)C[C@@H]2CN(CCc3c([nH]c4ccccc34)[C@@](C(=O)OC)(c3cc4c(cc3OC)N(C)[C@H]3[C@@](O)(C(=O)OC)[C@H](OC(C)=O)[C@]5(CC)C=CCN6CC[C@]43[C@@H]65)C2)C1 [Vinblastine] (max concentration tested 1000 nM) , is recorded percent inhibition of viability strictly lower than 10%?
Not satisfied

Is percent inhibition of viability strictly under 10% for the entry CN(C)C/C=C/C(=O)Nc1cc2c(Nc3ccc(F)c(Cl)c3)ncnc2cc1O[C@H]1CCOC1 [Afatinib] (max concentration tested 1000 nM) ?
Satisfied

Threshold test, percent inhibition of viability < 10%: Oc1ncc(N(CCCl)CCCl)c(O)n1 [Uracil mustard] (max concentration tested 10000 nM)
Satisfied

API: query returns whether the compound falls strictly under 10% in percent inhibition of viability. Query: CCOC(=O)CCNc1cc(N2CCc3ccccc3CC2)nc(-c2ccccn2)n1 [GSK-J4] (max concentration tested 100000 nM)
Not satisfied

Quick check: does CCOc1cc2ncc(C#N)c(Nc3ccc(OCc4ccccn4)c(Cl)c3)c2cc1NC(=O)/C=C/CN(C)C [Neratinib] (max concentration tested 1000 nM) have percent inhibition of viability under 10%?
Not satisfied

Quick check: percent inhibition of viability of COc1ccc(C[C@H](NC(=O)[C@H](C)NC(=O)CN2CCOCC2)C(=O)N[C@@H](Cc2ccccc2)C(=O)C2(C)CO2)cc1 (stereo in doubt) [ONX-0914] (max concentration tested 10000 nM) under 10%?
Not satisfied

Dear reviewer, please state whether COc1cc(Nc2ncc(F)c(Nc3ccc4c(n3)NC(=O)C(C)(C)O4)n2)cc(OC)c1OC [Tamatinib] (max concentration tested 10000 nM) has percent inhibition of viability strictly beneath 10%.
Not satisfied

###

# Test system: normal primary NK cells, pool 1 (3 donors), resting (IL-2 0 ng/mL)
# Assay details: percent inhibition of viability; higher = more inhibition
# Test context: 72 h; 100 nM
Consider the following molecules; for each one, report its percent inhibition of viability.
The response must be a number in % with no trailing unit.

State, in one line, measured percent inhibition of viability of CCN(CC)C(=S)SSC(=S)N(CC)CC [Disulfiram] (max concentration tested 100000 nM)
3.62

Tell us which percent inhibition of viability value is on record for NC(=O)c1ccc(I)c([N+](=O)[O-])c1 [Iniparib] (max concentration tested 10000 nM)
-6.4

Please list percent inhibition of viability recorded for the molecule Cc1cc(C(C)Nc2ccccc2)c2nc(N3CCOCC3)cc(=O)n2c1 (stereo unspecified) [TGX-221] (max concentration tested 10000 nM)
-11.3

For CCOC(=O)CCNc1cc(N2CCc3ccccc3CC2)nc(-c2ccccn2)n1 [GSK-J4] (max concentration tested 100000 nM) , write its percent inhibition of viability.
-16

For the molecule CN1CCN(c2cc(C(=O)Nc3ccc4c(c3)-c3c(c(C(N)=O)nn3-c3ccc(F)cc3)CC4)c(Cl)cn2)CC1 [PHA 408] (max concentration tested 10000 nM) , report percent inhibition of viability.
14.8

Look up percent inhibition of viability of CCCOc1ccn2c(C(C)=O)cc(-c3ccccc3S(C)(=O)=O)c2c1 [GSK2801] (max concentration tested 10000 nM) and report it.
-10.8

###

# Test system: normal primary NK cells, pool 1 (3 donors) (IL-2 2.5 ng/mL)
# Assay details: drug sensitivity score (DSS) (DSS units); higher = more sensitive; extreme values may be limits of the assay
# Test context: 72 h
For each of the compounds below, state its drug sensitivity score.

Answer with drug sensitivity score of COc1cc2c(NC3CCN(C(C)C)CC3)nc(C3CCCCC3)nc2cc1OCCCN1CCCC1 [UNC0638] (max concentration tested 10000 nM) measured for normal primary NK cells, pool 1 (3 donors) (IL-2 2.5 ng/mL).
5.15

Report drug sensitivity score from normal primary NK cells, pool 1 (3 donors) (IL-2 2.5 ng/mL) testing of COc1ncc(-c2ccc3nccc(-c4ccnnc4)c3c2)cc1NS(=O)(=O)c1ccc(F)cc1F [Omipalisib] (max concentration tested 1000 nM)
5.18

# return drug sensitivity score of CS(=O)(=O)CCNCc1ccc(-c2ccc3ncnc(Nc4ccc(OCc5cccc(F)c5)c(Cl)c4)c3c2)o1 [Lapatinib] (max concentration tested 1000 nM) (system: normal primary NK cells, pool 1 (3 donors) (IL-2 2.5 ng/mL))
1.89

Answer with drug sensitivity score of COc1cc2ncnc(Nc3ccc(F)c(Cl)c3)c2cc1OCCCN1CCOCC1 [Gefitinib] (max concentration tested 10000 nM) measured for normal primary NK cells, pool 1 (3 donors) (IL-2 2.5 ng/mL).
0.66

###

Please respond with reported percent inhibition of viability for every item in the list.
# System: normal NK cells expanded with K562-aAPC
# Assay details: percent inhibition of viability; higher = more inhibition
# Test context: 72 h; IL-2 2.5 ng/mL; 100 nM
Number in %, nothing else.

Please report percent inhibition of viability for the following compound: Oc1ncc(N(CCCl)CCCl)c(O)n1 [Uramustine] (max concentration tested 10000 nM)
-4

Respond only with percent inhibition of viability recorded for O=C1NC(=O)/C(=C/c2ccc3nccc(-c4ccncc4)c3c2)S1 (max concentration tested 10000 nM)
-2.48

Return percent inhibition of viability (reported value) for this compound: CC(=O)N(O)CCCCCNC(=O)CCC(=O)N(O)CCCCCNC(=O)CCC(=O)N(O)CCCCCN [Deferoxamine] (max concentration tested 10000 nM)
-5.64

Specify reported percent inhibition of viability for the compound shown: CC[C@]1(O)C[C@@H]2CN(CCc3c([nH]c4ccccc34)[C@@](C(=O)OC)(c3cc4c(cc3OC)N(C)[C@H]3[C@@](O)(C(=O)OC)[C@H](OC(C)=O)[C@]5(CC)C=CCN6CC[C@]43[C@@H]65)C2)C1 [Vinblastine] (max concentration tested 1000 nM)
60.2

Report percent inhibition of viability for COc1cc(O)c2c(c1)/C=C/C[C@H](O)[C@H](O)C(=O)/C=C\C[C@H](C)OC2=O [(5Z)-7-Oxozeaenol] (max concentration tested 10000 nM)
-1.51

###

# Tested on: normal primary NK cells, pool 1 (3 donors) (IL-2 2.5 ng/mL)
# Assay details: percent inhibition of viability; higher = more inhibition
# Test context: 72 h; 10000 nM
Lab note: anything with percent inhibition of viability below 30% is marked true (1); values at 30% or higher are marked false (0).

Does this molecule meet the criterion percent inhibition of viability < 30%? COc1cc2ncnc(Nc3ccc(F)c(Cl)c3)c2cc1OCCCN1CCOCC1 [Gefitinib] (max concentration tested 10000 nM)
true (1)

Check if percent inhibition of viability falls below 30% for N#CC(c1ccnc(OCc2ccc(CN3CCOCC3)cc2)n1)c1nc2ccccc2s1 (stereo not given) [Bentamapimod] (max concentration tested 10000 nM) .
true (1)

hey, is percent inhibition of viability for COc1ccc(C[C@H](NC(=O)[C@H](C)NC(=O)CN2CCOCC2)C(=O)N[C@@H](Cc2ccccc2)C(=O)C2(C)CO2)cc1 (stereo in doubt) [ONX-0914] (max concentration tested 10000 nM) lower than 30% or not?
false (0)

API: query returns whether the molecule falls strictly under 30% in percent inhibition of viability. Query: COC(=O)c1ccc2c(c1)NC(=O)/C2=C(\Nc1ccc(N(C)C(=O)CN2CCN(C)CC2)cc1)c1ccccc1 [Nintedanib] (max concentration tested 10000 nM)
false (0)
